- MEASURED_ON: T1, Human full length B7-H3 (human, UniProt Q5ZPR3 29-534)
- T1 sequence: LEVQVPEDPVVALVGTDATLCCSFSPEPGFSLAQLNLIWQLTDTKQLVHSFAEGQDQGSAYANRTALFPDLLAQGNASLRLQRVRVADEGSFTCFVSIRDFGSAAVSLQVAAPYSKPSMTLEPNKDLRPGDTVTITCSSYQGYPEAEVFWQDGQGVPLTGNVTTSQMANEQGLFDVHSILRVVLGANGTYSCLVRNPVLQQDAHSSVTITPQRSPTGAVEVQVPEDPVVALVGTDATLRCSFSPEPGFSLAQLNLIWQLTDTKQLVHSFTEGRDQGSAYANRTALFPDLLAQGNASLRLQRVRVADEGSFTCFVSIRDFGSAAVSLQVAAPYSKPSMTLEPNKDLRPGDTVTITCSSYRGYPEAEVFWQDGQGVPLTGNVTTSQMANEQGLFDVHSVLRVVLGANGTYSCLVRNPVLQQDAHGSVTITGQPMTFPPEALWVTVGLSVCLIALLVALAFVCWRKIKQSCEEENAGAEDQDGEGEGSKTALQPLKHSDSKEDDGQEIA
- ASSAY: cell-based or functional assay
Response field label: string, one of y (EC50 nM H1650 (in vitro tumor cell cytotoxicity) strictly below 1 nM) or n.

huAb13v1-SE (antibody, human IgG1, kappa, L234A L235A, V domains shown, synthon SE on interchain Cys) VH: EVQLQESGPGLVKPSETLSLTCAVTGYSITSGYSWHWIRQFPGNGLEWMGYIHSSGSTNYNPSLKSRISISRDTSKNQFFLKLSSVTAADTAVYYCAGYDDYFEYWGQGTTVTVSS VL: DIQMTQSPSSLSASVGDRVTITCKASQNVGFNVAWYQQKPGKSPKALIYSASYRYSGVPSRFSGSGSGTDFTLTISSLQPEDFAEYFCQQYNWYPFTFGQGTKLEIKR: y
huAb3v2.5-SE (antibody, human IgG1, kappa, L234A L235A, V domains shown, synthon SE on interchain Cys) VH: EVQLVQSGAEVKKPGSSVKVSCKASGYTFSSYWMHWVRQAPGQGLEWIGLIHPESGSTNYNEMFKNRATLTVDRSTSTAYMELSSLRSEDTAVYYCAGGGRLYFDYWGQGTTVTVSS VL: DIVMTQSPLSLPVTPGEPASISCRSSQSLVHSNRDTYLRWYLQKPGQSPQLLIYKVSNRFSGVPDRFSGSGSGTDFTLKISRVEAEDVGVYYCSQSTHVPYTFGGGTKVEIKR: y
huAb13v1-ZZ (antibody, human IgG1, kappa, L234A L235A, V domains shown, synthon ZZ on interchain Cys) VH: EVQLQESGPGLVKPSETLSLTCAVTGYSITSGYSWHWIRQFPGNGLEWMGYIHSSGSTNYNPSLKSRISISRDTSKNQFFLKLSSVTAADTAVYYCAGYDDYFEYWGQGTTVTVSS VL: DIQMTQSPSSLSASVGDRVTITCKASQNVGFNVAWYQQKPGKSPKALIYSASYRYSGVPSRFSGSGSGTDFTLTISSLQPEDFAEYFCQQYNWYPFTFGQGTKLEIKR: y
huAb3v2.6-ZT (antibody, human IgG1, kappa, L234A L235A, V domains shown, synthon ZT on interchain Cys) VH: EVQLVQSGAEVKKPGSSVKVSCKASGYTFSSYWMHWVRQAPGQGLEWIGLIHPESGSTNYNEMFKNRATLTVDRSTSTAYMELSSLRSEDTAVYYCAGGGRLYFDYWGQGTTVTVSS VL: DIVMTQSPLSLPVTPGEPASISCRSSQSLVHSNQDTYLRWYLQKPGQSPQLLIYKVSNRFSGVPDRFSGSGSGTDFTLKISRVEAEDVGVYYCSQSTHVPYTFGGGTKVEIKR: n
huAb3v2.6-XW (antibody, human IgG1, kappa, L234A L235A, V domains shown, synthon XW on interchain Cys) VH: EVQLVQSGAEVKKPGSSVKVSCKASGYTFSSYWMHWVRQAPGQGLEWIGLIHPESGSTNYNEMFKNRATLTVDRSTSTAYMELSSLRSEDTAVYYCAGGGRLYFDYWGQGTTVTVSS VL: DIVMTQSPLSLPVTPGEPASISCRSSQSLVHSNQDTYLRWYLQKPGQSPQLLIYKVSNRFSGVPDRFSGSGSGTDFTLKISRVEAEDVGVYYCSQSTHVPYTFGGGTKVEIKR: n
huAb13v1-WD (antibody, human IgG1, kappa, L234A L235A, V domains shown, synthon WD on interchain Cys) VH: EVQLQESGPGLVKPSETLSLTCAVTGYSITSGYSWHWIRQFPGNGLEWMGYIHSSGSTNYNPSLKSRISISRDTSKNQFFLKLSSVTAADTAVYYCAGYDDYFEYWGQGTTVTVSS VL: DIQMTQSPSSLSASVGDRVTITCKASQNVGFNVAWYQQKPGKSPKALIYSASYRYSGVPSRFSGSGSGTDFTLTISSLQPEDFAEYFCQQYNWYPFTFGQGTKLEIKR: y
huAb3v2.6-LB (antibody, human IgG1, kappa, L234A L235A, V domains shown, synthon LB on interchain Cys) VH: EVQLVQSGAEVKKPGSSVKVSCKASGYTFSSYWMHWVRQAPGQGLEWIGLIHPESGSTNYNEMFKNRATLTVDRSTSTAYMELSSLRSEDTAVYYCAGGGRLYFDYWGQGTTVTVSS VL: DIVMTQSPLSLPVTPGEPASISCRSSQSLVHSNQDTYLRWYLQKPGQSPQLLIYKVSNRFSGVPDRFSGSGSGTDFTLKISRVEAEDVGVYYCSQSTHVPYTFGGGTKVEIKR: n
huAb3v2.5-AAA (antibody, human IgG1, kappa, L234A L235A, V domains shown, synthon AAA on interchain Cys) VH: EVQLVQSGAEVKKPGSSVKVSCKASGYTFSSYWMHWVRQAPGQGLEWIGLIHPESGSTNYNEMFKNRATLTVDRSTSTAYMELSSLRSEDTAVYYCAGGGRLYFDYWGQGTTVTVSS VL: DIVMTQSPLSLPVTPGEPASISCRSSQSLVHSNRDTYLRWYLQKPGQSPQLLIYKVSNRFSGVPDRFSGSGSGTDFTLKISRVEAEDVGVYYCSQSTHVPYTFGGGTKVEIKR: y
huAb3v2.6-SR (antibody, human IgG1, kappa, L234A L235A, V domains shown, synthon SR on interchain Cys) VH: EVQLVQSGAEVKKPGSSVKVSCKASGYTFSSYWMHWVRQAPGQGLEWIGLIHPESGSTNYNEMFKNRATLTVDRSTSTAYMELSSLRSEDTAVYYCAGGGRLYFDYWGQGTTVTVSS VL: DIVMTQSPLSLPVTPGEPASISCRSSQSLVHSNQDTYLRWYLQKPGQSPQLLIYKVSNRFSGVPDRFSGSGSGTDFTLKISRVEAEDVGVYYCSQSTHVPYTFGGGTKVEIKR: y

Let us examine a further case.
Q: I'd appreciate it if you could check whether huAb3v2.6-KZ (antibody, human IgG1, kappa, L234A L235A, V domains shown, synthon KZ on interchain Cys) VH: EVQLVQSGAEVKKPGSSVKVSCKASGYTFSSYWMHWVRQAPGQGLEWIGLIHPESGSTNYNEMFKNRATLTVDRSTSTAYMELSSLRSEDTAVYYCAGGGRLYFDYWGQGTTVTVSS VL: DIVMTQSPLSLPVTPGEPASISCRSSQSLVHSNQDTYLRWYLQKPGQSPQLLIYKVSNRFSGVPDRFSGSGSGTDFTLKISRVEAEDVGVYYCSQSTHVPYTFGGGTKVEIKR has EC50 nM H1650 (in vitro tumor cell cytotoxicity) smaller than 1 nM.
Ans: n
